Tested on: SN12C renal
assay_overview: NCI tumour cell line growth inhibition, 48 h
Peptide text beside a SMILES is read from it. * marks the point of attachment. Cbz = O=C(OCc1ccccc1)*
observable: TGI

Example results:
compound | test_result
CCOC(=O)/C=C(\C(=O)OCC)n1cc(C)c(=O)n(Cc2cn(COCCOC(C)=O)nn2)c1=O | 63.3 µM
N#Cc1cc2c(=S)[nH]c(=S)[nH]c2nc1SCc1ccccc1 | > 100 µM

# compound CCOC(=O)CCC(NC(=O)CNC(=O)CNC(=O)C(CCC(=O)OCC)NC(=O)C(CCC(=O)OCC)NC(=O)C(CCC(=O)OCC)NC(=O)OCc1ccccc1)C(=O)NC(CCC(=O)OCC)C(=O)NC(CCC(=O)OCC)C(=O)OCC (stereo not given) (Cbz-E(OEt)E(OEt)E(OEt)GGE(OEt)E(OEt)E(OEt)-OEt; configuration not given here) ; its TGI = > 75 µM

# compound `COc1ccc(/C=N/NC(=O)CSc2nc(-c3ccccc3)c(-c3ccccc3)[nH]2)cc1OC` ; its TGI = 94.4 µM
